Overview of reported protein stability index across a group of variants:
B1: PRKX (parent)
chain: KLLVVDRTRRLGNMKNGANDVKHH

Variants of: B1
Measurement description: protein stability index of a GFP-peptide fusion (GPS, HEK-293T) (PSI 1-6); higher = more stable;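 note: lentivirally expressed fusions sorted by FACS into six bins by GFP to DsRed ratio, PSI derived from sequencing read proportions per bin multiplied by bin number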
Details: c terminus: a fixed tail appended
Output: the number by itself.

KLLLVDRTRRLGNMKNGANDVKHH [V4L] :: 3
KLLVVDRTRHLGNMKNGANDVKHH [R10H] :: 3.04
KLLVVDRTRRLGNMKNGANDVKHK [H24K] :: 3
KLLVVDRTRRLGNHKNGANDVKHH [M14H] :: 3.54

[in] Identify protein stability index associated with the variant KLLVVDRTRRLKNMKNGANDVKHH [G12K]
[out] 2.48

[in] Fill in reported protein stability index for this entry: KLLVVDRTRLLGNMKNGANDVKHH [R10L]
[out] 2.82

[in] Look up and report measured protein stability index for this entry: KLLVVARTRRLGNMKNGANDVKHH [D6A]
[out] 2.19

[in] Specify protein stability index for KLLVVDRTRRLGNMKNGAPDVKHH [N19P] and stop.
[out] 2.97

[in] // fetch protein stability index given entry KLLVVDQTRRLGNMKNGANDVKHH [R7Q]
[out] 3.97

[in] State its protein stability index: KLLVVDRTRRLGNMKNGLNDVKHH [A18L]
[out] 2.7

[in] Read off the recorded protein stability index for KLLVVDRWRRLGNMKNGANDVKHH [T8W]
[out] 2.78

[in] // fetch protein stability index given entry KALVVDRTRRLGNMKNGANDVKHH [L2A]
[out] 3.84

[in] Check the records and state protein stability index for KLLVVDRTRRLGNMKEGANDVKHH [N16E]
[out] 3.18

[in] Consider the variant KLCVVDRTRRLGNMKNGANDVKHH [L3C] . State its measured protein stability index.
[out] 3.74

[in] Please give measured protein stability index of the following entry: KLLVVDRTRRIGNMKNGANDVKHH [L11I]
[out] 3.22

[in] For the variant KLLVVDRTYRLGNMKNGANDVKHH [R9Y] , give its reported protein stability index.
[out] 2.63

[in] Could you please provide reported protein stability index for KLLVVDRTPRLGNMKNGANDVKHH [R9P] ? Thanks!
[out] 3.45

[in] Fill in protein stability index for record KLLHVDRTRRLGNMKNGANDVKHH [V4H]
[out] 3.62
